Items are presented alongside their recorded IC50.
Test system: THP-1 cells
Assay: SYK-independent TNF-α release assay (lipopolysaccharide stimulation), ELISA
Type: cell-based, human
Conditions: Homo sapiens, LPS, 18 hours, SYK-independent pathway, read-out: TNF-α release inhibition, LPS stimulation (IC50 nM)

Recorded IC50, per entry:
Cc1nn(-c2ccnc(Nc3ccc4c(c3)c(Cl)c(C)n4C)n2)cc1CN1CC[C@@H](O)C1: 2800 nM
Cc1nn(-c2ccnc(Nc3ccc4c(cnn4C)c3)n2)cc1CN1CC(O)C1: 934 nM
Cc1nn(-c2ccnc(Nc3ccc4c(c3)c(Cl)cn4C)n2)cc1CN1CC(O)C1: 1140 nM

Now look at this one.
Task item: May I ask what IC50 has been recorded for "Cc1nn(-c2ccnc(Nc3ccc4c(c3)c(C(=O)C(F)(F)F)cn4C)n2)cc1CN1CC(O)C1" ?
Reply: > 1000 nM
